Cited source for all entries: patent US20060252744A1

Examples of compounds with documented D2 basal (basal response, no drug = 100%) follow.
target: human D2 dopamine receptor (Homo sapiens, UniProt P14416); assay: R-SAT functional receptor assay, D2 receptor co-expressed with Gαo; conditions: compounds at 1 μM; mean +/− standard error; R-SAT
Sequence (P14416 whole entry): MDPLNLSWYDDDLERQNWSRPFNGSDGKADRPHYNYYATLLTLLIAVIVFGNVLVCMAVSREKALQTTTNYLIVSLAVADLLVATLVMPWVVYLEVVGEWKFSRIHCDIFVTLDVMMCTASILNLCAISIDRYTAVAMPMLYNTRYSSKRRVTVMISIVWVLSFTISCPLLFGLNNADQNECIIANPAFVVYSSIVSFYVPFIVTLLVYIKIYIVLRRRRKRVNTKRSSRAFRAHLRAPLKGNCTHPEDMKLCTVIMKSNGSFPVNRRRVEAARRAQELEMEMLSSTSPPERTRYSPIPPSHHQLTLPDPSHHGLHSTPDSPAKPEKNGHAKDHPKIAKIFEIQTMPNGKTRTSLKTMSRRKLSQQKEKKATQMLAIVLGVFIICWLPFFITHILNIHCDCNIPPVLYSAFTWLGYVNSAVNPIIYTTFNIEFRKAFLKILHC
RESULT_TYPE: D2 basal (basal response, no drug = 100%)

• CCN1CCC[C@H]1CNC(=O)c1c(O)c(Cl)cc(Cl)c1OC (racemic) [S(−)-raclopride] = 60− %
• CC(C)(C)[C@]1(O)CCN2C[C@H]3c4ccccc4CCc4cccc(c43)[C@@H]2C1 = 60 +/− 2%
• CCN(CC)CCCN1c2ccccc2Sc2ccc(Cl)cc21 = 60 +/− 7%
• O=C1Cc2cc(CCN3CCN(c4nsc5ccccc45)CC3)c(Cl)cc2N1 = 66 +/− 8%
• Cc1nc2c(C)cccn2c(=O)c1CCN1CCC(c2noc3cc(F)ccc23)CC1 = 62 +/− 8%
• Clc1ccc2c(c1)N=C(N1CCNCC1)c1ccccc1N2 = 229 +/− 21%

---

molecular target: human D3 dopamine receptor (Homo sapiens, UniProt P35462); assay: R-SAT functional receptor assay, D3 receptor co-expressed with Gαo; details: compounds at 1 μM; mean +/− standard error; R-SAT
Sequence (P35462 whole entry): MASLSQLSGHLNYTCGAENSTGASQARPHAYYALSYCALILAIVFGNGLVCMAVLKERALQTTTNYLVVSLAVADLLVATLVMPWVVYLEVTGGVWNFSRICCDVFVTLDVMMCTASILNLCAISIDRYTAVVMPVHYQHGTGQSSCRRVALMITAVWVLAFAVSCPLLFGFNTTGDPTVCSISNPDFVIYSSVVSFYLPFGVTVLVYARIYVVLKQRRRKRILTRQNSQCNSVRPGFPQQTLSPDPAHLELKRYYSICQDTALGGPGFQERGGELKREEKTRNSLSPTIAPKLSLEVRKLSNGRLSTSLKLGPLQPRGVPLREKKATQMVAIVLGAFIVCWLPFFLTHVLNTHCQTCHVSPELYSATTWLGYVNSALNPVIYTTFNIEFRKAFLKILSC
RESULT_TYPE: D3 basal (basal response, no drug = 100%)

* CCN1CCCC1CNC(=O)c1cc(S(N)(=O)=O)ccc1OC (centres unmarked) [sulpiride] | 55 +/− 9%
* Cc1nc2c(C)cccn2c(=O)c1CCN1CCC(c2noc3cc(F)ccc23)CC1 | 51 +/− 10%
* CCN1CCC[C@H]1CNC(=O)c1c(O)c(Cl)cc(Cl)c1OC (racemic) [S(−)-raclopride] | 56− %
* Cc1cc2c(s1)Nc1ccccc1N=C2N1CCN(C)CC1 | 83 +/− 6%
* CCN(CC)CCCN1c2ccccc2Sc2ccc(Cl)cc21 | 63 +/− 10%

---

biological target: human D2 dopamine receptor (Homo sapiens, UniProt P14416); experiment: R-SAT functional receptor assay, D2 receptor co-expressed with Gαo; conditions: read-out: % basal response (D2 intrinsic activity)
RESULT_TYPE: Emax (%)

• Cc1cccc2c1Nc1ccc(Cl)cc1N=C2N1CCNCC1 = 102
• Cc1cccc2c1Oc1ccc(Cl)cc1N=C2N1CCNCC1 = 106
• Clc1ccc2c(c1)N=C(N1CC3CC1CN3)c1ccccc1N2 (centres unmarked) = 116
• Clc1ccc2c(c1)N=C(N1CCNCC1)c1ccccc1O2 = 150
• Clc1ccc2c(c1)N=C(N1CCCNCC1)c1ccccc1N2 = 172

---

Here, each record is paired with measured Emax data.
target: human D2 dopamine receptor (Homo sapiens, UniProt P14416); experiment: R-SAT functional receptor assay, D2 receptor co-expressed with Gαo; conditions: read-out: % basal response (D2 intrinsic activity)
RESULT_TYPE: Emax (%)

* Fc1ccc2c(c1)N=C(N1CCNCC1)c1ccccc1N2 | 170
* Clc1ccc2c(c1)N=C(N1CCNCC1)c1ccccc1C2 | 260
* Fc1ccc2c(c1)N=C(N1CCNCC1)c1ccccc1O2 | 207
* Cc1cccc2c1Oc1ccc(C(F)(F)F)cc1N=C2N1CCNCC1 | 118
* Clc1ccc2c(c1)N=C(NC[C@@H]1CCCN1)c1ccccc1N2 | 105
* N#Cc1ccc2c(c1)N=C(N1CCNCC1)c1ccccc1N2 | 201
* Brc1ccc2c(c1)N=C(N1CCNCC1)c1ccccc1O2 | 155
* Cc1cccc2c1Oc1ccc(Br)cc1N=C2N1CCNCC1 | 112
* Brc1ccc2c(c1)N=C(N1CCNCC1)CCN2 | 142
* Cc1cccc2c1Oc1ccc(F)cc1N=C2N1CCNCC1 | 126
* Brc1ccc2c(c1)N=C(N1CCNCC1)c1ccccc1N2 | 147
* CN1c2ccc(Cl)cc2N=C(N2CCNCC2)c2ccccc21 | 141
